# test-name: sedimentation equilibrium AUC, self-association, 25 C
No end group written: not given here.
I would appreciate it if you labelled entries Satisfied when % monomer at 30 µM is 80% or higher, otherwise Not satisfied.

Observe how each entry below is paired with its result.
protein	cat
GPSQPTYPGDDAPVEDLIRFYDNLQQYLNVVTRHRY (ends and bridges not checked) [avian pancreatic polypeptide (aPP)]	Not satisfied
GPSQPTYPGDDAPVEDLIRAYDNLQQYLNVVTRHRY-NH2 [aPP^F20A]	Satisfied
GPSQPTAPGDDAVPEDLIRFYDNLQQYLNVVTRHRY-NH2 [aPP^Y7AP13VV14P]	Satisfied

Query block: Decide: % monomer at 30 µM of GPSQPTAPGDDAPVEDLIRFYDNLQQYLNVVTRHRY-NH2 [aPP^Y7A] >= 80%?
Result block: Satisfied

Query block: Decide: % monomer at 30 µM of GPSQPTYPGDDAPVEDLIRFADNLQQYLNVVTRHRY-NH2 [aPP^Y21A] >= 80%?
Result block: Not satisfied
